Values from ChEMBL document CHEMBL1138820

- System: Bacillus subtilis
- Assay Details: Minimum inhibitory concentration required for antibacterial activity against Bacillus subtilis ATCC 6633; gram positive
- Format: functional
Readout Name: MIC (µg/mL)

>>> print(df.to_string())
                                   molecule  quantitative_readout
0  O=C1Nc2[nH]c(=S)n(-c3ccc([N+](=O)[O-])cc3)c(=O)c2C(c2ccccc2Cl)N1/N=N/c1ccc(Cl)cc1 (configuration not stated)                     6
1  Cc1cccc(-n2c(=S)[nH]c3c(c2=O)C(c2ccccc2Cl)N(/N=N/c2ccc(Cl)cc2)C(=O)N3)c1 (configuration not stated)                    21
2  O=C1Nc2[nH]c(=S)n(-c3cccc(Cl)c3)c(=O)c2C(c2ccccc2Cl)N1/N=N/c1ccc(Cl)cc1 (configuration not stated)                     4

[1] O=C1Nc2[nH]c(=S)n(-c3ccccc3)c(=O)c2C(c2ccccc2Cl)N1/N=N/c1ccc(Cl)cc1 (configuration not stated)
[2] O=C(O)c1ccc(-n2c(=S)[nH]c3c(c2=O)C(c2ccccc2Cl)N(/N=N/c2ccc(Cl)cc2)C(=O)N3)cc1 (configuration not stated)
[3] COc1ccc(-n2c(=S)[nH]c3c(c2=O)C(c2ccccc2Cl)N(/N=N/c2ccc(Cl)cc2)C(=O)N3)cc1 (configuration not stated)
Query string: Rank the 3 molecules: largest MIC first, smallest last. Use the labels to give the requested order.
Result string: 1, 3, 2
(1: 37 µg/mL, 3: 16 µg/mL, 2: 7 µg/mL)

[A] O=C1Nc2[nH]c(=S)n(-c3cccc(O)c3)c(=O)c2C(c2ccccc2Cl)N1/N=N/c1ccc(Cl)cc1 (configuration not stated)
[B] O=C1Nc2[nH]c(=S)n(-c3cccc([N+](=O)[O-])c3)c(=O)c2C(c2ccccc2Cl)N1/N=N/c1ccc(Cl)cc1 (configuration not stated)
Query string: Hi there, can you help? I need to know whether A or B has lower measured MIC. Answer by quoting the chosen item's label.
Result string: B

[a] O=C1Nc2[nH]c(=S)n(-c3ccc(O)cc3)c(=O)c2C(c2ccccc2Cl)N1/N=N/c1ccc(Cl)cc1 (configuration not stated)
[b] Cc1ccc(-n2c(=S)[nH]c3c(c2=O)C(c2ccccc2Cl)N(/N=N/c2ccc(Cl)cc2)C(=O)N3)cc1 (configuration not stated)
Query string: Hi there, can you help? I need to know whether a or b has lower measured MIC. Answer by quoting the chosen item's label.
Result string: a
(a: 10 µg/mL, b: 22 µg/mL)

* * *

- System: Aspergillus niger
- Assay Details: Minimum inhibitory concentration required for antifungal activity against Aspergillus niger ATCC 16404
- Type: functional
Readout Name: MIC (µg/mL)

Please review the entries below; each comes with its answer.
>>> df
                                   molecule    subject_of_test  quantitative_readout
0  O=C1Nc2[nH]c(=S)n(-c3cccc([N+](=O)[O-])c3)c(=O)c2C(c2ccccc2Cl)N1/N=N/c1ccc(Cl)cc1 (stereo not drawn)  Aspergillus niger                    16
1  O=C1Nc2[nH]c(=S)n(-c3ccc(O)cc3)c(=O)c2C(c2ccccc2Cl)N1/N=N/c1ccc(Cl)cc1 (stereo not drawn)  Aspergillus niger                    27
2  O=C1Nc2[nH]c(=S)n(-c3ccc(Cl)cc3)c(=O)c2C(c2ccccc2Cl)N1/N=N/c1ccc(Cl)cc1 (stereo not drawn)  Aspergillus niger                    29

[a] O=C1Nc2[nH]c(=S)n(-c3ccccc3)c(=O)c2C(c2ccccc2Cl)N1/N=N/c1ccc(Cl)cc1 (stereo not drawn)
[b] COc1ccc(-n2c(=S)[nH]c3c(c2=O)C(c2ccccc2Cl)N(/N=N/c2ccc(Cl)cc2)C(=O)N3)cc1 (stereo not drawn)
[c] O=C1Nc2[nH]c(=S)n(-c3ccc([N+](=O)[O-])cc3)c(=O)c2C(c2ccccc2Cl)N1/N=N/c1ccc(Cl)cc1 (stereo not drawn)
Query string: Rank the 3 molecules: largest MIC first, smallest last. Use the labels to give the requested order.
Result string: a, b, c
